Where do the numbers come from? From ChEMBL document CHEMBL1144209.

system: CYP17 (steroid 17-alpha-hydroxylase/17,20 lyase) (Homo sapiens)
Sequence (P05093 whole entry): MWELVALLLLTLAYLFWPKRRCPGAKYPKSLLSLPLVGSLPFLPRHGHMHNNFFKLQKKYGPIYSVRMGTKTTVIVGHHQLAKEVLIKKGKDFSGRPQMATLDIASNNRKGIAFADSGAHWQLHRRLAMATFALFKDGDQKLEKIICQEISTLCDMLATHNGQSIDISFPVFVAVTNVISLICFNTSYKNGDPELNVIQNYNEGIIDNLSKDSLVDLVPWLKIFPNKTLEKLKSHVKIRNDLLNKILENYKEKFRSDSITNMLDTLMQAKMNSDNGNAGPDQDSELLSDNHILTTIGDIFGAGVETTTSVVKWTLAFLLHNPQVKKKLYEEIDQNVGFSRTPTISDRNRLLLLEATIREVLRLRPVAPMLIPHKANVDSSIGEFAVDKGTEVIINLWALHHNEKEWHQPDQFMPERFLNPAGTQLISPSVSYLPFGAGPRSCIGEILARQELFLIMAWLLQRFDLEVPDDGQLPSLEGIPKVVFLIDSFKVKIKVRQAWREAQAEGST
measurementDescription: Inhibition of human CYP17 expressed in Escherichia coli coexpressing NADPH reductase at 2 uM
The label depends only on inhibition at 2 µM: 1.0 if it is at least 20%, 0.0 if it is smaller.

> print(dat)
                                   compound                                    system  group
1  C(=C\c1ccccc1)/CCN(Cc1cccc2ccccc12)n1cncn1  CYP17 (steroid 17-alpha-hydroxylase/17,20 lyase) (Homo sapiens)    0.0
2  Clc1ccc(CC(Cc2ccc(-c3ccccc3)cc2)n2ccnc2)c(Cl)c1 (stereo unspecified)  CYP17 (steroid 17-alpha-hydroxylase/17,20 lyase) (Homo sapiens)    0.0
3  Fc1ccc(CC(Cc2ccc(-c3ccccc3)cc2)n2ccnc2)cc1 (stereo unspecified)  CYP17 (steroid 17-alpha-hydroxylase/17,20 lyase) (Homo sapiens)    0.0
4  Fc1ccc(CC(Cc2ccc(-c3ccccc3)cc2)n2ccnc2)c(F)c1 (stereo unspecified)  CYP17 (steroid 17-alpha-hydroxylase/17,20 lyase) (Homo sapiens)    0.0
5  Clc1ccc(CN(Cc2ccc(-c3ccccc3)cc2)n2ccnc2)c(Cl)c1  CYP17 (steroid 17-alpha-hydroxylase/17,20 lyase) (Homo sapiens)    1.0

Q) Please indicate if the recorded inhibition at 2 µM for c1ccc(CN(Cc2cccc3ccsc23)n2ccnc2)cc1 meets or exceeds 20%.
A) 0.0

====

system: Aromatase (Homo sapiens, UniProt P11511)
measurementDescription: Inhibition of human aromatase
Below: a set of entries, each annotated with reported IC50.
Your answer should be a plain number; it is taken to be in nM.

Consider the reported IC50 for these compounds:
> print(dat)
                                    compound                                    system  unitabbrev  readoutnumber
 1  c1ccc(CN(Cc2ccc(-c3ccccc3)cc2)n2ccnc2)cc1  Aromatase (Homo sapiens, UniProt P11511)          nM           1200
 2  Cc1ccc(CC(Cc2ccc(-c3ccccc3)cc2)n2ccnc2)cc1 (stereo unspecified)  Aromatase (Homo sapiens, UniProt P11511)          nM           1320
 3     CC(C)(C)c1ccc(CN(Cc2cccs2)n2ccnc2)cc1  Aromatase (Homo sapiens, UniProt P11511)          nM            580
 4  Clc1ccc(CN(Cc2ccc(-c3ccccc3)cc2)n2ccnc2)c(Cl)c1  Aromatase (Homo sapiens, UniProt P11511)          nM           3650
 5  COc1ccc(CC(Cc2ccc(-c3ccccc3)cc2)n2ccnc2)cc1 (stereo unspecified)  Aromatase (Homo sapiens, UniProt P11511)          nM           1680
 6     CC(C)(C)c1ccc(CN(Cc2cccs2)n2cncn2)cc1  Aromatase (Homo sapiens, UniProt P11511)          nM           9230
 7  COc1ccc(CN(Cc2ccc(-c3ccccc3)cc2)n2ccnc2)cc1  Aromatase (Homo sapiens, UniProt P11511)          nM           1530
 8  Fc1ccc(CN(Cc2ccc(-c3ccccc3)cc2)n2ccnc2)cc1  Aromatase (Homo sapiens, UniProt P11511)          nM            190
 9  Fc1ccc(CN(Cc2ccc(-c3ccccc3)cc2)n2ccnc2)c(F)c1  Aromatase (Homo sapiens, UniProt P11511)          nM            350
10  Cc1ccc(CN(Cc2ccc(-c3ccccc3)cc2)n2ccnc2)cc1  Aromatase (Homo sapiens, UniProt P11511)          nM           2200

Next:
According to the records, this compound Clc1ccc(CN(CC/C=C/c2ccccc2)n2cncn2)c(Cl)c1 displays IC50 of 17100

====

Below: a set of entries, each annotated with reported inhibition at 36 µM.
system: Aromatase (Homo sapiens)
Sequence (P11511 whole entry): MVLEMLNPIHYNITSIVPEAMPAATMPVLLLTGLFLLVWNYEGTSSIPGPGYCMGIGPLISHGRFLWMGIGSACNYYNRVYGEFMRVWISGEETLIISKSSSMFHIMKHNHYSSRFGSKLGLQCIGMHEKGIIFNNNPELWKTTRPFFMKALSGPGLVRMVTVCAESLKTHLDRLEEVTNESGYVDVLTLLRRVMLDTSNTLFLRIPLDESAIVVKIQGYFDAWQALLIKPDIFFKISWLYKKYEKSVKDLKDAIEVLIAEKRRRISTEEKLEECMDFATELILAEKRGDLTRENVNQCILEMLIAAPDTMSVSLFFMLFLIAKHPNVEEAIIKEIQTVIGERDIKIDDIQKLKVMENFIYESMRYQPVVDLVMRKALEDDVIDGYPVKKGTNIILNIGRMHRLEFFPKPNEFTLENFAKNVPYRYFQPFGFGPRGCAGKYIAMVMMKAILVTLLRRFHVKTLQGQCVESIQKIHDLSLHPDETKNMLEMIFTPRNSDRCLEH
measurementDescription: Inhibition of human aromatase at 36 uM
Your answer should be a plain number; it is taken to be in %.

Consider the reported inhibition at 36 µM for these compounds:
> print(dat)
                                entrysmiles  unitabbrev  readoutnumber
1  C(=C\c1ccccc1)/CCN(Cc1cccc2ccccc12)n1cnnc1           %           14.8
2  CC(C)(C)c1ccc(CN(Cc2ccc(-c3ccccc3)cc2)n2cncn2)cc1           %           19.8

Query Clc1ccc(CN(CC/C=C/c2ccccc2)n2cnnc2)c(Cl)c1 on Aromatase (Homo sapiens); inhibition at 36 µM returned: 10.6

Query CC(C)(C)c1ccc(CN(Cc2cccs2)n2cnnc2)cc1 on Aromatase (Homo sapiens); inhibition at 36 µM returned: 30.7

Query C(=C\c1ccccc1)/CCN(Cc1ccc(-c2ccccc2)cc1)n1cncn1 on Aromatase (Homo sapiens); inhibition at 36 µM returned: 31.4

Query CC(C)(C)c1ccc(CN(Cc2ccc(-c3ccccc3)cc2)n2cnnc2)cc1 on Aromatase (Homo sapiens); inhibition at 36 µM returned: 8.8

Query CC(C)(C)c1ccc(CN(Cc2ccc(Cl)cc2Cl)n2cncn2)cc1 on Aromatase (Homo sapiens); inhibition at 36 µM returned: 36

Query Clc1ccc(CN(Cc2cccc3ccccc23)n2cncn2)c(Cl)c1 on Aromatase (Homo sapiens); inhibition at 36 µM returned: 24.9

Query CC(C)(C)c1ccc(CN(Cc2cccc3ccccc23)n2cncn2)cc1 on Aromatase (Homo sapiens); inhibition at 36 µM returned: 14.6

Query CC(C)(C)c1ccc(CN(Cc2ccc(Cl)cc2Cl)n2cnnc2)cc1 on Aromatase (Homo sapiens); inhibition at 36 µM returned: 3.3

Query C(=C\c1ccccc1)/CCN(Cc1ccc(-c2ccccc2)cc1)n1cnnc1 on Aromatase (Homo sapiens); inhibition at 36 µM returned: 5.9

Query Clc1ccc(CN(Cc2ccc(-c3ccccc3)cc2)n2cncn2)c(Cl)c1 on Aromatase (Homo sapiens); inhibition at 36 µM returned: 27.6

Query CC(C)(C)c1ccc(CN(CC/C=C/c2ccccc2)n2cnnc2)cc1 on Aromatase (Homo sapiens); inhibition at 36 µM returned: 38.3

Query Clc1ccc(CN(Cc2cccc3ccccc23)n2cnnc2)c(Cl)c1 on Aromatase (Homo sapiens); inhibition at 36 µM returned: 8.8

====

system: Aromatase (Homo sapiens, UniProt P11511)
pIC50: −log10 of the molar value.
The label depends only on pIC50: true (1) if it is at least 6, false (0) if it is smaller.

> print(dat)
                               entrysmiles     group
1  Clc1ccc(CN(Cc2ccc(Cl)s2)n2ccnc2)c(Cl)c1  true (1)

Q) Please indicate if the recorded pIC50 for c1ccc(CN(Cc2cccc3ccsc23)n2ccnc2)cc1 meets or exceeds 6.
A) false (0)

Q) Please indicate if the recorded pIC50 for Clc1ccc(CN(Cc2cccc3ccsc23)n2ccnc2)c(Cl)c1 meets or exceeds 6.
A) false (0)

Q) Please indicate if the recorded pIC50 for Clc1ccc(CN(Cc2cccc3ccccc23)n2ccnc2)c(Cl)c1 meets or exceeds 6.
A) false (0)
